# system name: N-terminally FLAG-tagged PARP2 (amino acids 1-583) (Homo sapiens, UniProt Q9UGN5)
# Construct: N-terminally FLAG-tagged PARP2 (amino acids 1-583)
# Sequence (Q9UGN5 whole entry, the tested form may be a part): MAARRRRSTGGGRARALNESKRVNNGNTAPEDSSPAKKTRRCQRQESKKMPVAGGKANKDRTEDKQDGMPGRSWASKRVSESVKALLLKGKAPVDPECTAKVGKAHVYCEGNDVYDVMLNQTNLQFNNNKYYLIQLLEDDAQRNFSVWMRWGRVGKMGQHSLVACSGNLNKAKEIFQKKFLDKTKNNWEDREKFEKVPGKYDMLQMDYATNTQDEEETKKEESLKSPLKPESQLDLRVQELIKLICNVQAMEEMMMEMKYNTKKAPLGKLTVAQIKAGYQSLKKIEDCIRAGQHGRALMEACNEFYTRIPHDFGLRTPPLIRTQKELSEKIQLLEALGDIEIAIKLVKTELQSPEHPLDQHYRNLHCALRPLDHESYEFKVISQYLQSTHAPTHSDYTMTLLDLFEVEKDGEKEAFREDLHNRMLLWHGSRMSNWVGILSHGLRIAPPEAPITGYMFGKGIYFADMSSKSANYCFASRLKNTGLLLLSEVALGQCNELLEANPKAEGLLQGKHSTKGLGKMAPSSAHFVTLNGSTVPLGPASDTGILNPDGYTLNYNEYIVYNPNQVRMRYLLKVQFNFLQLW
# procedure details: PARP2 probe displacement HTRF assay
# Format: binding
# condition summary: binned Kd, probe displacement HTRF
# Protocol: Data analysis was performed identical as for PARP1.
measured property: Kd

Solved entries (count: 4):
> print(dat)
                                   compound  measured.property   observed.result
1  CNC(=O)c1ccc(N2CCC(N3CCC(c4cc5ccc(F)cc5c(=O)[nH]4)C3)CC2)cc1F (single isomer, unassigned) [Compound 270b]                 Kd      10 to 100 nM
2  CNC(=O)c1ccc(N2CCC(N3CCC(c4cc5ncc(F)cc5c(=O)[nH]4)C3)CC2)c(F)n1 (single isomer, unassigned) [Compound 324a]                 Kd        > 10000 nM
3  CCc1ccc(C2CCN(C3CCN(c4cnc(C(=O)NC)nc4C)CC3)C2)[nH]c1=O (single isomer, unassigned) [Compound 246b]                 Kd  1000 to 10000 nM
4  CS(=O)(=O)NC(=O)c1ccc(N2CCC(N3CCC(c4cc5ccccc5c(=O)[nH]4)C3)CC2)cn1 (racemic)                 Kd    100 to 1000 nM

Your task in this section: give Kd for each listed record.
1. CNC(=O)c1ccc(N2CCC(N3CCC(c4cc5c(c(=O)[nH]4)CCCC5)C3)CC2)c(F)n1 (single isomer, unassigned) [Compound 337a]
2. CNC(=O)c1ccc(N2CCC(N3CCC(F)(c4nc5ccccc5c(=O)[nH]4)C3)CC2)cn1 (single isomer, unassigned) [Compound 328a]

["100 to 1000 nM", "> 10000 nM"]

---

Answer each item with its documented Kd.
# system name: N-terminally FLAG-tagged PARP2 (amino acids 1-583) (Homo sapiens)
# Construct: N-terminally FLAG-tagged PARP2 (amino acids 1-583)
# procedure details: PARP2 probe displacement HTRF assay
# Assay type: binding
# condition summary: binned Kd, PARP2 probe displacement HTRF

Solved entries (count: 3):
> print(dat)
                                   compound   observed.result
1  CCc1nc(C(=O)NC)ccc1N1CCC(N2CCCC(c3nc4ccccc4c(=O)[nH]3)C2)CC1 (single isomer, unassigned) [Compound 112a]  1000 to 10000 nM
2  CNC(=O)c1ccc(N2CCC(CN3CCC(c4nc5ccccc5c(=O)[nH]4)CC3)C2)cn1 (single isomer, unassigned) [Compound 50a]  1000 to 10000 nM
3  CCc1nc(C(=O)NC)ccc1N1CCC(N2CCC(c3nc4ccccc4c(=O)[nH]3)C2)CC1 (single isomer, unassigned) [Compound 118b]        > 10000 nM

Your task in this section: give Kd for each listed record.
1. CNC(=O)c1ccc(N2CCC(N3CCC(c4nc5ccccc5c(=O)[nH]4)C3)CC2)cc1 (single isomer, unassigned) [Compound 80b]
2. CNC(=O)c1ccc(N2CCC(N3CCC(c4cc5cccc(F)c5c(=O)[nH]4)C3)CC2)c(Cl)n1 (single isomer, unassigned) [Compound 183b]
3. CNC(=O)c1ccc(N2CCC(N3CCC(c4nc5cnccc5c(=O)[nH]4)C3)CC2)cn1 (single isomer, unassigned) [Compound 84b]

["100 to 1000 nM", "100 to 1000 nM", "> 10000 nM"]

---

# system name: full length N-terminally FLAG-tagged PARP1 (Homo sapiens, UniProt P09874)
# Sequence (P09874 whole entry): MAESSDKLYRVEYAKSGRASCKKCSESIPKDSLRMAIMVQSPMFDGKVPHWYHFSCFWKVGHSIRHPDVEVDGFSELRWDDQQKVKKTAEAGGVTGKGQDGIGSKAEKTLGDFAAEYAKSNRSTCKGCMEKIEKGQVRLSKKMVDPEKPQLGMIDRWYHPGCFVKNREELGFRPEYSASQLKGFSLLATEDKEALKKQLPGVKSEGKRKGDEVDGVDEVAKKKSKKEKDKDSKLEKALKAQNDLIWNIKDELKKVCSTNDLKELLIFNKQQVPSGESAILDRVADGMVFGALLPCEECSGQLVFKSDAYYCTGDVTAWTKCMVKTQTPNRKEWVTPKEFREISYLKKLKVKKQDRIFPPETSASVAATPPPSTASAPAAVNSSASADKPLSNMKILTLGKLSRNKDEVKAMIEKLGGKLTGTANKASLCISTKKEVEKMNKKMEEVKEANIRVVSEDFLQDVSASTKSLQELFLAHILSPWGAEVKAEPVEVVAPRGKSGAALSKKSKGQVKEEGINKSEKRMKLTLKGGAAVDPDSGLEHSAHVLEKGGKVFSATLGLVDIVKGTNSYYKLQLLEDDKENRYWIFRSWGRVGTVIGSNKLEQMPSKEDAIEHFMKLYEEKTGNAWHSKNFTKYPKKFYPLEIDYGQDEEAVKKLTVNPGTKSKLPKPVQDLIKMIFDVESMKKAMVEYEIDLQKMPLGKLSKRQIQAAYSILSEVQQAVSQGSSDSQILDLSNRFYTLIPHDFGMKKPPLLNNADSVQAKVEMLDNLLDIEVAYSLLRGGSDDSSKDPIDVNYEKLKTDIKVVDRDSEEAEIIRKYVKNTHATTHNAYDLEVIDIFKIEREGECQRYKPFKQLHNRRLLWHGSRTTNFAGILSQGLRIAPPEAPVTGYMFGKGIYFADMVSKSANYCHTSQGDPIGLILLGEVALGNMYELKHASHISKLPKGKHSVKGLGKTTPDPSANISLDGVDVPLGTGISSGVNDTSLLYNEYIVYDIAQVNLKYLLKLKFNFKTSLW
# procedure details: PARP1 probe displacement HTRF assay
# condition summary: read-out: PARP1 HTRF; binned Kd, probe displacement HTRF
pKd: −log10 of the molar value.
measured property: pKd

> print(dat)
                                   molecule  observed.result
1  CNS(=O)(=O)c1ccc(N2CCC(N3CCC(c4cc5ccccc5c(=O)[nH]4)C3)CC2)cc1 (single isomer, unassigned) [Compound 346a]           > 8.00
2  CNC(=O)c1ccc(N2CCC(N3CCC(c4cc5c(C(F)(F)F)nn(C)c5c(=O)[nH]4)C3)CC2)cn1 (racemic) [Compound 392rac]     6.00 to 7.00

Entry CNC(=O)c1ccc(N2CCC(N3CCC(c4nc5[nH]nc(C(F)(F)F)c5c(=O)[nH]4)C3)CC2)c(F)n1 (single isomer, unassigned) [Compound 267a] : reported pKd = ?
7.00 to 8.00

---

# system name: N-terminally FLAG-tagged PARP2 (amino acids 1-583) (Homo sapiens, UniProt Q9UGN5)
# Construct: N-terminally FLAG-tagged PARP2 (amino acids 1-583)
# procedure details: PARP2 probe displacement HTRF assay
# Type: binding
# condition summary: binned Kd, probe displacement HTRF
# Experimental: Data analysis was performed identical as for PARP1.
Answer each item with its documented Kd.

Solved entries (count: 5):
> print(dat)
                                   compound  measured.property  observed.result
1  CC(=O)Nc1ccc(N2CCC(N3CCC(c4cc5ccccc5c(=O)[nH]4)C3)CC2)cc1 (single isomer, unassigned) [Compound 289b]                 Kd      0.1 to 1 µM
2  CNC(=O)c1ccc(N2CCC(N3CCC(c4ccc(CCOC)c(=O)[nH]4)C3)CC2)cn1 (single isomer, unassigned) [Compound 240b]                 Kd          > 10 µM
3  CNC(=O)c1ccc(N2CCC(N3CCC(c4cc5cccc(F)c5c(=O)[nH]4)C3)CC2)c(F)c1 (single isomer, unassigned) [Compound 371b]                 Kd       1 to 10 µM
4  CNC(=O)c1ccc(N2CCC(N3CCC(c4cc5ncc(Cl)cc5c(=O)[nH]4)C3)CC2)c(F)n1 (single isomer, unassigned) [Compound 344a]                 Kd          > 10 µM
5  CNC(=O)c1ccc(N2CCC(N3CC4(c5nc6c(c(=O)[nH]5)CCCC6)CC3C4)CC2)cn1                 Kd      0.1 to 1 µM

Okay, next one:
Entry CNC(=O)c1ccc(N2CCC(N3CCC(c4nc5sc(C)c(C)c5c(=O)[nH]4)C3)CC2)cn1 (single isomer, unassigned) [Compound 221a] : reported Kd = ?
0.1 to 1 µM

---

Answer each item with its documented IC50.
# system name: full length N-terminally FLAG-tagged PARP1 (Homo sapiens, UniProt P09874)
# procedure details: PARP1 biochemical DELFIA assay (auto-PARylation)
# Parameters: recombinant full length human N-terminally FLAG-tagged PARP1
# condition summary: binned IC50, PARP1 biochemical DELFIA assay

Solved entries (count: 5):
> print(dat)
                                   molecule  measured.property  observed.result
1  CNC(=O)c1ccc(N2CCC(N3CCC(c4cc5ccc(F)cc5c(=O)[nH]4)C3)CC2)cn1 (single isomer, unassigned) [Compound 154b]               IC50          < 10 nM
2  CCc1ccc(C2CCN(C3CCN(c4ccc(C(=O)NC)nc4Cl)CC3)C2)[nH]c1=O (racemic)               IC50          < 10 nM
3  CCc1ccc(C2CCN(C3CCN(c4ccc(C(=O)NCC(F)(F)F)nc4)CC3)C2)[nH]c1=O (racemic)               IC50          < 10 nM
4  O=C(NCC(F)(F)F)c1ccc(N2CCC(N3CCCC(c4nc5ccccc5c(=O)[nH]4)C3)CC2)cn1 (single isomer, unassigned) [Compound 115b]               IC50     10 to 100 nM
5  CNC(=O)c1ccc(N2CCC(N3CCC(c4nc5cccc(F)c5c(=O)[nH]4)C3)CC2)cn1 (single isomer, unassigned) [Compound 101a]               IC50     10 to 100 nM

Your task in this section: give IC50 for each listed record.
1. CNC(=O)c1ccc(N2CCC(N3CCCC(c4nc5cnccc5c(=O)[nH]4)C3)CC2)cn1 (single isomer, unassigned) [Compound 106a]
2. CNC(=O)c1ccc(N2CCC(N3CCC(c4ccc(C(C)C)c(=O)[nH]4)C3)CC2)cn1 (racemic)
3. CNC(=O)c1ccc(N2CCC(N3CCCC(c4nc5ccccc5c(=O)[nH]4)C3)CC2)c(C(F)(F)F)n1 (racemic)
4. O=c1[nH]c(C2CCN(C3CCN(c4ccc(Cl)cc4)CC3)C2)nc2ccccc12 (single isomer, unassigned) [Compound 43b]
5. CNC(=O)c1ccc(N2CCC(N3CCC(c4nc5onc(C)c5c(=O)[nH]4)C3)CC2)cn1 (single isomer, unassigned) [Compound 149a]
6. CNC(=O)c1ccc(N2CCC(N3CCC(Cc4nc5ccccc5c(=O)[nH]4)CC3)CC2)cn1
7. CNC(=O)c1ccc(N2CCC(N3CCCC(c4nc5sc6c(c5c(=O)[nH]4)CCC6)C3)CC2)cn1 (single isomer, unassigned) [Compound 185b]
8. CCc1ccc(C2CCCN(C3CCN(c4ccc(C(=O)NC)nc4)CC3)C2)[nH]c1=O (single isomer, unassigned) [Compound 53b]

1: 100 to 1000 nM; 2: < 10 nM; 3: 10 to 100 nM; 4: < 10 nM; 5: 100 to 1000 nM; 6: < 10 nM; 7: 10 to 100 nM; 8: 100 to 1000 nM
